- Target: Rev responsive element (RRE) RNA
- Protocol description: Binding affinity to Rev response element RNA
Result type: pKd
To interpret pKd, take it as minus log10 of a concentration measured in moles per litre.

Molecule	Target	Recorded value
Cc1cn(CC(=O)N(CCNC(=O)CN(CCNC(=O)CSCCCCCCSC[C@H]2O[C@@H](O[C@@H]3[C@@H](O)[C@H](N)C[C@H](N)[C@H]3O[C@H]3O[C@H](CN)[C@@H](O)[C@H](O)[C@H]3N)[C@H](O)[C@@H]2O[C@H]2O[C@@H](CN)[C@@H](O)[C@H](O)[C@H]2N)C(=O)Cn2cc(C)c(=O)[nH]c2=O)CC(N)=O)c(=O)[nH]c1=O	Rev responsive element (RRE) RNA	6.89
NC[C@@H]1O[C@H](O[C@H]2[C@@H](O)[C@H](O[C@@H]3[C@@H](O)[C@H](N)C[C@H](N)[C@H]3O[C@H]3O[C@H](CN)[C@@H](O)[C@H](O)[C@H]3N)O[C@@H]2CO)[C@H](N)[C@@H](O)[C@@H]1O [FRAMYCETIN]	Rev responsive element (RRE) RNA	6.74

GET /values?readout=pKd&system=Rev responsive element (RRE) RNA&item= "NC[C@@H]1O[C@H](O[C@H]2[C@@H](O)[C@H](O[C@@H]3[C@@H](O)[C@H](N)C[C@H](N)[C@H]3O[C@H]3O[C@H](CN)[C@@H](O)[C@H](O)[C@H]3N)O[C@@H]2CSCCCCCCSCC(=O)NCCN(CC(=O)NCCN(CC(N)=O)C(=O)Cn2cnc3c(N)ncnc32)C(=O)Cn2cnc3c(O)nc(N)nc32)[C@H](N)[C@@H](O)[C@@H]1O"
6.70

----------
Each item that follows carries a reported Ratio.
- System: Rev responsive element (RRE) RNA
- Protocol description: Discrimination factor, Kd for tRNA/Kd for Rev response element RNA
- Assay type: nucleic-acid assay
Give the figure by itself; no unit, no explanation.

A selection of reference data follows.
Compound smiles	Ratio
NC[C@@H]1O[C@H](O[C@H]2[C@@H](O)[C@H](O[C@@H]3[C@@H](O)[C@H](N)C[C@H](N)[C@H]3O[C@H]3O[C@H](CN)[C@@H](O)[C@H](O)[C@H]3N)O[C@@H]2CSCCCCCCSCC(=O)NCCN(CC(=O)NCCN(CC(N)=O)C(=O)Cn2ccc(N)nc2=O)C(=O)Cn2cnc3c(N)ncnc32)[C@H](N)[C@@H](O)[C@@H]1O	1.5
NC[C@@H]1O[C@H](O[C@H]2[C@@H](O)[C@H](O[C@@H]3[C@@H](O)[C@H](N)C[C@H](N)[C@H]3O[C@H]3O[C@H](CN)[C@@H](O)[C@H](O)[C@H]3N)O[C@@H]2CSCCCCCCSCC(=O)NCCN(CC(=O)NCCN(CC(N)=O)C(=O)Cn2cnc3c(N)ncnc32)C(=O)Cn2cnc3c(N)ncnc32)[C@H](N)[C@@H](O)[C@@H]1O	7.1
Cc1cn(CC(=O)N(CCNC(=O)CSCCCCCCSC[C@H]2O[C@@H](O[C@@H]3[C@@H](O)[C@H](N)C[C@H](N)[C@H]3O[C@H]3O[C@H](CN)[C@@H](O)[C@H](O)[C@H]3N)[C@H](O)[C@@H]2O[C@H]2O[C@@H](CN)[C@@H](O)[C@H](O)[C@H]2N)CC(=O)NCCN(CC(N)=O)C(=O)Cn2cnc3c(N)ncnc32)c(=O)[nH]c1=O	3.2
NC[C@@H]1O[C@H](O[C@H]2[C@@H](O)[C@H](O[C@@H]3[C@@H](O)[C@H](N)C[C@H](N)[C@H]3O[C@H]3O[C@H](CN)[C@@H](O)[C@H](O)[C@H]3N)O[C@@H]2CSCCCCCCSCC(=O)NCCN(CC(=O)NCCN(CC(N)=O)C(=O)Cn2cnc3c(O)nc(N)nc32)C(=O)Cn2cnc3c(O)nc(N)nc32)[C@H](N)[C@@H](O)[C@@H]1O	7
NC[C@@H]1O[C@H](O[C@H]2[C@@H](O)[C@H](O[C@@H]3[C@@H](O)[C@H](N)C[C@H](N)[C@H]3O[C@H]3O[C@H](CN)[C@@H](O)[C@H](O)[C@H]3N)O[C@@H]2CSCCCCCCSCC(=O)NCCN(CC(=O)NCCN(CC(N)=O)C(=O)Cn2cnc3c(O)nc(N)nc32)C(=O)Cn2cnc3c(N)ncnc32)[C@H](N)[C@@H](O)[C@@H]1O	4.5

Would you kindly look at the next entry?
GET /values?readout=Ratio&system=Rev responsive element (RRE) RNA&item= "Cc1cn(CC(=O)N(CCNC(=O)CN(CCNC(=O)CSCCCCCCSC[C@H]2O[C@@H](O[C@@H]3[C@@H](O)[C@H](N)C[C@H](N)[C@H]3O[C@H]3O[C@H](CN)[C@@H](O)[C@H](O)[C@H]3N)[C@H](O)[C@@H]2O[C@H]2O[C@@H](CN)[C@@H](O)[C@H](O)[C@H]2N)C(=O)Cn2cnc3c(O)nc(N)nc32)CC(N)=O)c(=O)[nH]c1=O"
2.4

----------
- Target: tRNA
- Protocol description: Binding affinity to tRNA
Each item that follows carries a reported Kd.
Number only, in µM; omit the unit.

A selection of reference data follows.
Compound smiles	Scale unit	Recorded value
NC[C@@H]1O[C@H](O[C@H]2[C@@H](O)[C@H](O[C@@H]3[C@@H](O)[C@H](N)C[C@H](N)[C@H]3O[C@H]3O[C@H](CN)[C@@H](O)[C@H](O)[C@H]3N)O[C@@H]2CSCCCCCCSCC(=O)NCCN(CC(=O)NCCN(CC(N)=O)C(=O)Cn2cnc3c(O)nc(N)nc32)C(=O)Cn2cnc3c(N)ncnc32)[C@H](N)[C@@H](O)[C@@H]1O	µM	0.17
Cc1cn(CC(=O)N(CCNC(=O)CN(CCNC(=O)CSCCCCCCSC[C@H]2O[C@@H](O[C@@H]3[C@@H](O)[C@H](N)C[C@H](N)[C@H]3O[C@H]3O[C@H](CN)[C@@H](O)[C@H](O)[C@H]3N)[C@H](O)[C@@H]2O[C@H]2O[C@@H](CN)[C@@H](O)[C@H](O)[C@H]2N)C(=O)Cn2cnc3c(O)nc(N)nc32)CC(N)=O)c(=O)[nH]c1=O	µM	0.22

Would you kindly look at the next entry?
Given "NC[C@@H]1O[C@H](O[C@H]2[C@@H](O)[C@H](O[C@@H]3[C@@H](O)[C@H](N)C[C@H](N)[C@H]3O[C@H]3O[C@H](CN)[C@@H](O)[C@H](O)[C@H]3N)O[C@@H]2CSCCCCCCSCC(=O)NCCN(CC(=O)NCCN(CC(N)=O)C(=O)Cn2ccc(N)nc2=O)C(=O)Cn2cnc3c(N)ncnc32)[C@H](N)[C@@H](O)[C@@H]1O" , state its recorded Kd.
0.076

----------
- Target: Rev responsive element (RRE) RNA
- Protocol description: Binding affinity to Rev response element RNA
Each item that follows carries a reported Kd.
Number only, in nM; omit the unit.

A selection of reference data follows.
Compound smiles	Kd (nM)
Cc1cn(CC(=O)N(CCNC(=O)CSCCCCCCSC[C@H]2O[C@@H](O[C@@H]3[C@@H](O)[C@H](N)C[C@H](N)[C@H]3O[C@H]3O[C@H](CN)[C@@H](O)[C@H](O)[C@H]3N)[C@H](O)[C@@H]2O[C@H]2O[C@@H](CN)[C@@H](O)[C@H](O)[C@H]2N)CC(=O)NCCN(CC(N)=O)C(=O)Cn2ccc(N)nc2=O)c(=O)[nH]c1=O	360
CC(=O)N(CCNC(=O)CSCCCCCCSC[C@H]1O[C@@H](O[C@@H]2[C@@H](O)[C@H](N)C[C@H](N)[C@H]2O[C@H]2O[C@H](CN)[C@@H](O)[C@H](O)[C@H]2N)[C@H](O)[C@@H]1O[C@H]1O[C@@H](CN)[C@@H](O)[C@H](O)[C@H]1N)CC(=O)NCCN(CC(N)=O)C(=O)Cn1ccc(N)nc1=O	320
CC(=O)N(CCNC(=O)CSCCCCCCSC[C@H]1O[C@@H](O[C@@H]2[C@@H](O)[C@H](N)C[C@H](N)[C@H]2O[C@H]2O[C@H](CN)[C@@H](O)[C@H](O)[C@H]2N)[C@H](O)[C@@H]1O[C@H]1O[C@@H](CN)[C@@H](O)[C@H](O)[C@H]1N)CC(=O)NCCN(CC(N)=O)C(=O)Cn1cnc2c(O)nc(N)nc21	130
NC[C@@H]1O[C@H](O[C@H]2[C@@H](O)[C@H](O[C@@H]3[C@@H](O)[C@H](N)C[C@H](N)[C@H]3O[C@H]3O[C@H](CN)[C@@H](O)[C@H](O)[C@H]3N)O[C@@H]2CSCCCCCCSCC(=O)NCCN(CC(=O)NCCN(CC(N)=O)C(=O)Cn2cnc3c(N)ncnc32)C(=O)Cn2cnc3c(N)ncnc32)[C@H](N)[C@@H](O)[C@@H]1O	58
NC[C@@H]1O[C@H](O[C@H]2[C@@H](O)[C@H](O[C@@H]3[C@@H](O)[C@H](N)C[C@H](N)[C@H]3O[C@H]3O[C@H](CN)[C@@H](O)[C@H](O)[C@H]3N)O[C@@H]2CSCCCCCCSCC(=O)NCCN(CC(=O)NCCN(CC(N)=O)C(=O)Cn2cnc3c(O)nc(N)nc32)C(=O)Cn2ccc(N)nc2=O)[C@H](N)[C@@H](O)[C@@H]1O	170

Would you kindly look at the next entry?
Given "NC[C@@H]1O[C@H](O[C@H]2[C@@H](O)[C@H](O[C@@H]3[C@@H](O)[C@H](N)C[C@H](N)[C@H]3O[C@H]3O[C@H](CN)[C@@H](O)[C@H](O)[C@H]3N)O[C@@H]2CSCCCCCCSCC(=O)NCCN(CC(=O)NCCN(CC(N)=O)C(=O)Cn2cnc3c(O)nc(N)nc32)C(=O)Cn2cnc3c(O)nc(N)nc32)[C@H](N)[C@@H](O)[C@@H]1O" , state its recorded Kd.
30

Hey, just so you know, these numbers are from ChEMBL document CHEMBL1149371.
